Data origin: PubChem BioAssay (Tox21)

assay: A CellTox Green Cytotoxicity Assay to monitor cytotoxicity in HepG2 cells - 16 hour (AID 1224876); conditions: CellTox Green fluorescence; series mostly up to 76.8 µM; further: nearly all actives have a fitted effect of over 45% in size
Inconclusive results are not listed. The source made the active and inactive calls. The call rests on the fitted dose curve; in most records, active means well fitted activation curve with a large enough effect in the repeat runs; inconclusive means weak or mixed curves; inactive means flat fitted curve, though single readings scatter.
API: response.call in Yes for active, No for inactive

Reference set (3 entries):
N#Cc1nc(Cl)c(Cl)c(Cl)c1Cl :: Yes
Cc1ccc(Cl)c(N)c1Cl :: No
CCCC(C)C=O (configuration not stated) :: No

Query block: Record request — test call for "CN1CCN(C)CC1"
Result block: No

Query block: Record request — test call for "NC(=O)c1ccccc1Cl"
Result block: No

Query block: Record request — test call for "CC/C=C\C/C=C\C/C=C\CCCCCCCC(=O)OC"
Result block: No
